test system: Escherichia coli; experiment: microbe, parasite or virus in culture; conditions: ATCC 25922
Description: Antibacterial activity against Escherichia coli ATCC 25922 assessed as reduction in microbial growth preincubated for 20 to 24 hrs followed by subculture in absence of compound and measured on day 4 CLSI based broth microdilution susceptibility method
Give measured MIC for each item. Keep answers brief.

Study these solved cases before continuing.
CCNc1cc(F)cc2c1[nH]c1ncc(-c3cncc(C#N)c3)c(-n3nc(C(F)(F)F)c4c3CNC4)c12 ... 1 µg/mL
CCNc1cc(F)cc2c1[nH]c1ncc(-c3cncc(C#N)c3)c(-n3ccc(C#N)n3)c12 ... 0.125 µg/mL
CCNc1cc(F)cc2c1[nH]c1ncc(-c3cncc(C(=O)NC)c3)c(-n3ccc(C(F)(F)F)n3)c12 ... 0.5 µg/mL

Q. Provide the documented MIC with Escherichia coli as the system for CCNc1cc(F)cc2c1[nH]c1ncc(-c3cncc(C#N)c3)c(-n3cc(CO)c(C(F)(F)F)n3)c12
A. 4 µg/mL
